This listing pairs sequences with measured phosphorylation enrichment.
# measured.on: FGFR1 (UniProt P11362)
# Sequence (P11362 whole entry, looked up): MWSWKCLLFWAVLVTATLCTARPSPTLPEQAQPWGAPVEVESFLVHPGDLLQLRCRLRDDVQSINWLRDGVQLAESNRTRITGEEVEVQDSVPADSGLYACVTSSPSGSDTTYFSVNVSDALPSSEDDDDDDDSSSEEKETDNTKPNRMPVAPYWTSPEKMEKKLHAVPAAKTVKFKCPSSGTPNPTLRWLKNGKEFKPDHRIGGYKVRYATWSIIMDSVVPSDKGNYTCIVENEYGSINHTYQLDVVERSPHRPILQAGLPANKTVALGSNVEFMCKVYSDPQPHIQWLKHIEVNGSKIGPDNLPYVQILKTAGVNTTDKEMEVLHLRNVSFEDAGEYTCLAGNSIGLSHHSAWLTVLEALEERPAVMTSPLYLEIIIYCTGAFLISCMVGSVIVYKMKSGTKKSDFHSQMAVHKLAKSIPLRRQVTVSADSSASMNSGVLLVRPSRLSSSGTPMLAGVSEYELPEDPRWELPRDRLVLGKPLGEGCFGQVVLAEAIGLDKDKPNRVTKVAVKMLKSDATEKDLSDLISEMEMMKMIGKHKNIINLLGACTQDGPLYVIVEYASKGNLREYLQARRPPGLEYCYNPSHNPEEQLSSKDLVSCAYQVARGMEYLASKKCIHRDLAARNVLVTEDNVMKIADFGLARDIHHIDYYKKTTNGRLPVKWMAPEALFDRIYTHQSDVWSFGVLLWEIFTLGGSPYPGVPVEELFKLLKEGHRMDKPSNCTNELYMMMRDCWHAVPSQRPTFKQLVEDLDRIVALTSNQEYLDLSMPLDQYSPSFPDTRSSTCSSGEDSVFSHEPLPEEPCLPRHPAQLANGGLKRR
# assay.notes: phosphorylation enrichment, bacterial display (enrichment ratio); higher = better substrate or ligand; peptides without Tyr show the background;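 also: 11-residue human phosphosite peptides and single-mutation variants displayed on the E. coli surface, counted by deep sequencing, each peptide's frequency after selection divided by its frequency in the unselected input library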;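 also: frequency after pTyr selection over input frequency; kinase dosed for 20-30% of maximal phosphorylation in three min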
outcome.measure: phosphorylation enrichment

biosequence="LSIWPYLQKID [MFSD8_Y63_M58L]" value_reported=0.584
biosequence="VILARYGPAWR [CYP2D6_Y124_F120I]" value_reported=0.608
biosequence="IIAVHYVLEES [RYR2_Y4559]" value_reported=0.557
biosequence="EEQKKYYNAVK [SCN5A_Y1494_M1498V]" value_reported=0.425
biosequence="KDYETYQPFQN [CTNND2_Y1157]" value_reported=0.686
biosequence="RKTAKYLLKGE [CDH5_Y82_N79T]" value_reported=1.04
biosequence="ITNLLYHLVGW [GBA_Y412_V414L]" value_reported=6.54
biosequence="KKGIVYIFNGR [ITGAV_Y404]" value_reported=0.417
biosequence="PDGHEYIFVDP [PDGFRA_Y572_YF]" value_reported=2.86
biosequence="FRRITYHNWRH [PDE6B_Y556_YF]" value_reported=0.432
biosequence="EQKKYYNAVKK [SCN5A_Y1495_M1498V]" value_reported=0.425
biosequence="QYNMQYSSSAA [ERBB2IP_Y981_I979M]" value_reported=0.792
biosequence="ERLWDYGMSSS [F8_Y1728]" value_reported=0.433
biosequence="AAVDNYCRHNY [HLA-DRB1_Y107_T106N]" value_reported=0.521
biosequence="TYEPNYGTVKR [RAPGEF6_Y1447_Q1452R]" value_reported=0.391
biosequence="KEEEDYKEENN [BMS1_Y651]" value_reported=0.468
biosequence="KSMSVYCTPNK [ATP2A2_Y497]" value_reported=0.473
biosequence="FVSLIYTNFEA [GSTP1_Y109_I105V_YF]" value_reported=0.962
biosequence="NLFIEYPTGSG [IRF2BPL_Y423_K418N]" value_reported=0.582
biosequence="HSVLQYVGGVM [FGGY_Y136]" value_reported=0.944
biosequence="YFVVEYRNQKP [MUC17_Y4332_D4334N]" value_reported=11.1
biosequence="FSMGCYEIFLG [HMGCL_Y198_S201Y_YF]" value_reported=0.95

---

# Test system: c-Abl (mouse)
# assay.notes: phosphorylation enrichment, bacterial display (enrichment ratio); higher = better substrate or ligand; peptides without Tyr show the background
Outcome: fulfilled for phosphorylation enrichment of at least 0.5; not fulfilled for anything lower.

biosequence="PTYEHYANSTQ [SLC12A3_Y70]" category_label=fulfilled
biosequence="KDHPDYKYQRR [SOX10_Y171_P175R]" category_label=fulfilled
biosequence="CTTIHYDYMCN [TP53_Y234_N235D]" category_label=fulfilled
biosequence="LFRFGYANTSE [SI_Y1233_C1229Y_YF]" category_label=fulfilled
biosequence="LRVHSYKSMQH [DRC7_Y516_P521H]" category_label=fulfilled
biosequence="VLTPKYRGGGG [HBA1_Y141_S139P]" category_label="not fulfilled"
biosequence="YRQNGYIPGSN [PCDHGA1_Y895_V894G]" category_label="not fulfilled"

---

# Test system: AncSZ
# assay.notes: phosphorylation enrichment, bacterial display (enrichment ratio); higher = better substrate or ligand; peptides without Tyr show the background
This listing pairs sequences with measured phosphorylation enrichment.
outcome.measure: phosphorylation enrichment

biosequence="ANVIHYFPTQA [SLC25A4_Y81_R80H]" outcome_measure="phosphorylation enrichment" value_reported=0.623
biosequence="AIGYEYSEINI [SIGLEC12_Y588]" outcome_measure="phosphorylation enrichment" value_reported=1.44
biosequence="PSRKDYETYQP [CTNND2_Y1154]" outcome_measure="phosphorylation enrichment" value_reported=1.04
biosequence="LIGRRCDDPEV [HSPA9_Y128_Y128C]" outcome_measure="phosphorylation enrichment" value_reported=1.76
biosequence="VYYYSYLLKNH [PTEN_Y180]" outcome_measure="phosphorylation enrichment" value_reported=1.48
biosequence="HGEAFYSEVKA [PAK5_Y182_P187A_YF]" outcome_measure="phosphorylation enrichment" value_reported=0.971
biosequence="KYVVVYFRETD [IL17RB_Y447_I451T]" outcome_measure="phosphorylation enrichment" value_reported=1.36
biosequence="NRLTDYFEPLL [BBS10_Y536_YF]" outcome_measure="phosphorylation enrichment" value_reported=1.71
biosequence="GSSKIYFLHPD [TLR5_Y108]" outcome_measure="phosphorylation enrichment" value_reported=0.849
biosequence="KGTAGYTTVAV [RET_Y752_R749T]" outcome_measure="phosphorylation enrichment" value_reported=0.517
biosequence="RRAKGYPINLF [ITGB2_Y125_D128N_YF]" outcome_measure="phosphorylation enrichment" value_reported=0.49
biosequence="DLAHKYHGGGG [HBB_Y146_A141D]" outcome_measure="phosphorylation enrichment" value_reported=0.441
biosequence="MFCASYDTKQE [F10_Y407_G406S]" outcome_measure="phosphorylation enrichment" value_reported=1.01
biosequence="NKFTTYLPWLP [C9orf24_Y126_R129W_YF]" outcome_measure="phosphorylation enrichment" value_reported=1.04
biosequence="GRLGEYDIDEV [SMS_Y134_V132G]" outcome_measure="phosphorylation enrichment" value_reported=1.3
biosequence="KSMSVYCTPNK [ATP2A2_Y497]" outcome_measure="phosphorylation enrichment" value_reported=1.13
biosequence="YMRGMYFRMTD [PLA2G6_Y541_K545T]" outcome_measure="phosphorylation enrichment" value_reported=1.21
biosequence="AAVDNYCRHNY [HLA-DRB1_Y107_T106N]" outcome_measure="phosphorylation enrichment" value_reported=0.621
biosequence="FDAHNYHPLPV [OAT_Y55_G51D_YF]" outcome_measure="phosphorylation enrichment" value_reported=0.731
biosequence="HRDDGYMPMSP [IRS1_Y612_T608R]" outcome_measure="phosphorylation enrichment" value_reported=0.785
biosequence="SGSIHYSHVPR [GLB1_Y57_R59H]" outcome_measure="phosphorylation enrichment" value_reported=0.681
biosequence="SNFRAYATEPH [TNNI3_Y29_YF]" outcome_measure="phosphorylation enrichment" value_reported=0.647
biosequence="YKWAVYCIIGR [NUP93_Y391_R388W]" outcome_measure="phosphorylation enrichment" value_reported=1.23
biosequence="TIQMMYGCDVG [HLA-A_Y123_I121M]" outcome_measure="phosphorylation enrichment" value_reported=1.22
biosequence="ESPGLCGFLNV [BCR_Y910_Y910C]" outcome_measure="phosphorylation enrichment" value_reported=1.01
biosequence="LTSKPYAFTAQ [NDUFS1_Y236_R241Q]" outcome_measure="phosphorylation enrichment" value_reported=0.542
biosequence="MECLPYGSLRD [JAK2_Y934_Y931C]" outcome_measure="phosphorylation enrichment" value_reported=1.08
biosequence="PIDLYYLMDLS [ITGB2_Y131]" outcome_measure="phosphorylation enrichment" value_reported=6.05
biosequence="DAASNYARGHF [TUBA3E_Y103_YF]" outcome_measure="phosphorylation enrichment" value_reported=0.503
biosequence="AAETTYDKILK [GDNF_Y156]" outcome_measure="phosphorylation enrichment" value_reported=0.886
biosequence="YGEYRYRSVIK [CFTR_Y517_D513G]" outcome_measure="phosphorylation enrichment" value_reported=0.714
biosequence="DWRQEYVLNES [TGM1_Y267]" outcome_measure="phosphorylation enrichment" value_reported=1.23
biosequence="RFLERYIFNPE [HLA-DPB1_Y57_R61P_YF]" outcome_measure="phosphorylation enrichment" value_reported=1.27
biosequence="ILGRTHFVNHE [NEDD4_Y627_Y627H_YF]" outcome_measure="phosphorylation enrichment" value_reported=0.633
biosequence="HDHFGYRQSVT [CD55_Y245_R240H_YF]" outcome_measure="phosphorylation enrichment" value_reported=0.733
biosequence="HCEDGYPGGSD [CTNND1_Y221_Y217C]" outcome_measure="phosphorylation enrichment" value_reported=1.44
biosequence="VNKLVYENING [FRS2_Y306]" outcome_measure="phosphorylation enrichment" value_reported=0.665
biosequence="SSQHRYSTPHA [RAF1_Y232]" outcome_measure="phosphorylation enrichment" value_reported=0.682
biosequence="PLQKIYNYNVL [SLC4A1_Y553_T552I]" outcome_measure="phosphorylation enrichment" value_reported=0.585
biosequence="VATRWYWSPEL [CDKL5_Y177_R178W]" outcome_measure="phosphorylation enrichment" value_reported=1.06
biosequence="DQLVKYGVNPG [TMPO_Y127]" outcome_measure="phosphorylation enrichment" value_reported=0.553
biosequence="LFRFGYANTSE [SI_Y1233_C1229Y_YF]" outcome_measure="phosphorylation enrichment" value_reported=0.696
biosequence="CSRRLYQLTKL [AR_Y858_F857L]" outcome_measure="phosphorylation enrichment" value_reported=0.666
biosequence="QRRLIYRCQVG [NR2E3_Y81_R76Q]" outcome_measure="phosphorylation enrichment" value_reported=0.968
biosequence="CTTIHYDYMCN [TP53_Y234_N235D]" outcome_measure="phosphorylation enrichment" value_reported=1.31
biosequence="FQLENYCNGGG [INS_Y108_YF]" outcome_measure="phosphorylation enrichment" value_reported=1.34
biosequence="KGLKVYVNGTL [ADGRD1_Y183_E178K]" outcome_measure="phosphorylation enrichment" value_reported=1.11
biosequence=PKDSAYVTWEP outcome_measure="phosphorylation enrichment" value_reported=1.66
biosequence="SVTCTSSPALN [TP53_Y126_Y126S]" outcome_measure="phosphorylation enrichment" value_reported=1.3
biosequence="PHQTIYGALMI [FGF23_Y70_S71G]" outcome_measure="phosphorylation enrichment" value_reported=0.849
